experiment: chemical genetic growth profiling, strain panel (AID 1159580);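 also: tested at 20 µM; growth read once vehicle control cultures reached saturation at 30 °C; 1 = growth at the plate median or of vehicle wells; lower values mean less growth of the strain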; conditions: S. cerevisiae deletion strains, growth OD, locus YMR058W, strain fet3, stronger effect = lower value
Screen size: about 5,500 compounds; about 2,000 (36%) were called active. Another 18% or so got no clear call; they are omitted. Some of the results follow.
Here, each record is paired with measured normalized growth data.
Please respond with just the number, no unit label.

Worked cases, answers included:
1. C1N2CN3CN1CN(C2)C3 ... 0.998
2. Cc1oncc1C(=O)Nc1ccc(C(F)(F)F)cc1 ... 0.937

// normalized growth value for CC(=O)C1CCC2C3CCC4C[C@H](O)CCC4(C)C3C[C@H](O)C12C (stereo partly drawn) : 0.968

Note to self: normalized growth recorded for C[C@H]1C[C@@H](O)[C@]2(O)[C@@]13CC(=O)OC[C@@]2(C)[C@](C)(O)C(=O)C3 was 1.03

Lab book: normalized growth of COc1ccc(-c2oc3cc(OC)c(OC)c(OC)c3c(=O)c2OC)cc1 noted as 0.959

// field: normalized growth; key: COc1ccc2c(c1)OCC(Cc1ccc(OC)c(OC)c1)C2=O (stereo not drawn) ; value = 0.938

====

assay: chemical genetic growth profiling, strain panel (AID 1159580);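 also: tested at 20 µM; growth read once vehicle control cultures reached saturation at 30 °C; 1 = growth at the plate median or of vehicle wells; lower values mean less growth of the strain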; details: S. cerevisiae deletion strains, growth OD, locus YLR039C, strain RIC1, stronger effect = lower value
Hit rate of the full screen: of about 5,500 compounds, about 2,000 (36%) were called active. Another 18% or so got no clear call; they are omitted. This is one part of the list.
RECORDED METRIC: normalized growth

1) CC(C)/C(O)=C1/C(=O)O[C@@H](c2ccoc2)[C@]2(C)C(O)[C@@H](O)[C@@]34OC5(C)OC67CC(C)(C(O)[C@]6(O)[C@@H](O)[C@]3(O5)C12)[C@H](CC(=O)O)[C@]74C (stereo partly specified) ... 1.06 (inactive)
2) COc1cc(OC)c2c(=O)cc(-c3ccccc3)oc2c1 ... 0.644 (active)
3) CC(C)(C)NC(=S)NC1CCN(Cc2ccccc2)CC1 ... 0.994 (inactive)
4) CC(=O)OC1CC(O)C(C)(C)C2CC(=O)C3(C)C(CCC4(C)C(c5ccoc5)OC(=O)C5OC543)C12C (stereo unspecified) ... 0.995 (inactive)
5) O=S(=O)(c1ccc(Cl)cc1)c1cc(C(F)(F)F)cc(C(F)(F)F)c1 ... 0.954 (inactive)

Next up:
The compound identified as N/C(=N/OC(=O)Nc1ccccc1)c1ccc(C2SCCS2)cc1 registered its normalized growth at 0.767 (active)

====

Readings of normalized growth for the listed molecules
assay: chemical genetic growth profiling, strain panel (AID 1159580);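 also: tested at 20 µM; growth read once vehicle control cultures reached saturation at 30 °C; 1 = growth at the plate median or of vehicle wells; lower values mean less growth of the strain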; conditions: S. cerevisiae deletion strains, growth OD, locus YMR231W, strain pep5, stronger effect = lower value
In all, about 5,500 compounds went through this assay and about 2,000 (36%) were called active. Inconclusive results (about 18%) are left out. Some of the results follow.
Lab note: record just the number, no unit beside it.

As a guide, the following entries are already answered.
1. CCC(C)C(=O)c1c(O)c(C)c2oc3c(C)c(O)c(C(=O)C(C)CC)c(O)c3c2c1O (stereo unspecified) ... 0.993
2. O=C(O)[C@@H](S)[C@@H](S)C(=O)O ... 0.982
3. CC(C)(S)[C@@H](N)C(=O)O ... 0.999
4. CN(C)CCC(c1ccccc1)c1ccccn1 (stereo unspecified) ... 1.02
5. CCC(=O)OC1[C@@H]2CC3=C4CC(=O)O[C@@H](c5ccoc5)[C@]4(C)CCC3[C@@](C)(C2=O)[C@@H](CC(=O)OC)C1(C)C (stereo partly specified) ... 0.955

Lab note: measured normalized growth of COC1C=CC23c4cc5c(cc4CN(CC2O)[C@@H]3C1)OCO5 (stereo partly specified) was 0.974
